# test target: full-length human AR (Homo sapiens)
# Construct: expression vector encoding full-length human AR; expressed in transfected cells; host or cells: HEK293 (hAR/HEK293 cells)
# Sequence (P10275 whole entry): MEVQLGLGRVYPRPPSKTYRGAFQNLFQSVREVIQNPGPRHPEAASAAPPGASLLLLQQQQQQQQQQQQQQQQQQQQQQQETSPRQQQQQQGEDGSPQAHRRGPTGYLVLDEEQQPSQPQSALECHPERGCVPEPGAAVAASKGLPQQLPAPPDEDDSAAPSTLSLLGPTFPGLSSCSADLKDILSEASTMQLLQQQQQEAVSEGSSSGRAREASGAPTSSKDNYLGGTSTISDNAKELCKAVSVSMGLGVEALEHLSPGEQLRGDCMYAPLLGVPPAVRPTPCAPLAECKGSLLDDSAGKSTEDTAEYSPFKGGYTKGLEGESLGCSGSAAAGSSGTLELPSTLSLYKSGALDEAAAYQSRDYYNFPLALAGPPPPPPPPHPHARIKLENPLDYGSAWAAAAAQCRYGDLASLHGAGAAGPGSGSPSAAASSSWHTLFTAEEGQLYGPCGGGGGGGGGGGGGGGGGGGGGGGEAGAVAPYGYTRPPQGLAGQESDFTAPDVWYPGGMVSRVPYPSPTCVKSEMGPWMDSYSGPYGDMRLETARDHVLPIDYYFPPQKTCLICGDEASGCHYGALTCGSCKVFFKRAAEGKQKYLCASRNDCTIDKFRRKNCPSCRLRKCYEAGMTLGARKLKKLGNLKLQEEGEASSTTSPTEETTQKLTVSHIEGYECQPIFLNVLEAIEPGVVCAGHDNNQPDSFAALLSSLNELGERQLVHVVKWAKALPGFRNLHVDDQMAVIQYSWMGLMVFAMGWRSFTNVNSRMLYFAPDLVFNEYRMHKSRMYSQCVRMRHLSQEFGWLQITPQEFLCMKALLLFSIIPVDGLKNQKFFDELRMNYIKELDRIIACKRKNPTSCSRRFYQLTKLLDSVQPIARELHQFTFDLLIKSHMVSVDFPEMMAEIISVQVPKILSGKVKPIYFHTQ
# experiment summary: AR antagonism, reporter gene assay in hAR/HEK293 cells
# Type: cell-based
# settings: HEK293 cells stably transfected with full-length human AR and androgen responsive luciferase reporter; co-treated with submaximal testosterone (usually 0.45 nM); 1% DMSO; triplicates
# reported IC50; entries follow
endpoint label: IC50 (nM)

> print(dat)
                                   molecule                          test.target  measured.number
1  CCN(c1ccc(C#N)c(Cl)c1)C1CCCC(c2cccnc2)C1 (single isomer, unassigned; diastereomer 2) [Ex. 76 cis-diastereomer]  full-length human AR (Homo sapiens)                1
2  Cc1nc(N(C)C2C=C(n3ccnc3)CCC2(C)C)ccc1[N+](=O)[O-] (single isomer, unassigned) [Ex. 203 enantiomer 1]  full-length human AR (Homo sapiens)               17
3  CCCn1cncc1C1=CCC(N(CC)c2ccc(C#N)c(C(F)(F)F)c2)C1 (stereo not shown)  full-length human AR (Homo sapiens)               58
4  CCN(c1ccc(C#N)c(C(F)(F)F)c1)C1CC=C(n2ccnc2)C1(C)C (stereo not shown)  full-length human AR (Homo sapiens)               63
